- EXPERIMENT NOTES: Binding ability of phage clones to silver particles
- TEST CONTEXT: peptide expressed on phage clone
ASSAY READOUT: binding ability to silver

Any idea what its binding ability to silver is? The substance is RALPDA [SEQ ID NO: 2]
binds
